Experimental Target: human TOR (Homo sapiens)
Construct: FLAG
Test Method Notes: mTOR enzyme assay (DELFIA, His6-S6K substrate)
Assay type: biochemical
Measurement Setup: read-out: mTOR Kinase Avg. IC50
Measured Endpoint: IC50 (nM)

In [3]: df
Out[3]:
                                   compound       experimental_target  qualifying_sign  observed_value
0  Cn1cc(/C=C2\Oc3cc(O)ccc3C2=O)c2c(-c3ccccc3)cccc21 [Example 443]  human TOR (Homo sapiens)                =            1240
1  Cn1cc(C=C2Oc3cc(O)cc(O)c3C2=O)c2cc([N+](=O)[O-])ccc21 [Example 228]  human TOR (Homo sapiens)                =             980
2  COc1ccc2c(c1)c(/C=C1\Oc3cc(O)c(F)cc3C1=O)c(C)n2CCCN(C)C [Example 352]  human TOR (Homo sapiens)                >             800
3  COc1ccc2c(c1)c(C=C1Oc3cc(O)cc(O)c3C1=O)c(C)n2CCCN1CCN(C)CC1 [Example 95]  human TOR (Homo sapiens)                =             153
